Tested on: KRAS G12V dependent lung adenocarcinoma cell line, NCI-H441
Experiment notes: Cellular pERK (Thr202/Tyr204) FRET/HTRF assay
Assay type: cell-based
Run conditions: Homo sapiens, NCI-H441, cellular pERK (Thr202/Tyr204) HTRF, NCI-H441 cells
pIC50: −log10 of the molar value.
Overview of reported pIC50 across a group of compounds:

Structure string: [2H]C([2H])(Oc1nc(N2CCOC[C@@H]3[C@@H](Cl)[C@@H]32)c2cnc(-c3cc(N)cc4cccc(C#C)c34)c(F)c2n1)[C@@]12CCCN1[C@H](C)[C@H](F)C2
pIC50: 5.00 to 6.30

Structure string: C#Cc1c(F)c(F)cc2cccc(-c3ncc4c(N5CCOC[C@H]6[C@H](F)[C@H]65)nc(OC[C@@]56CCCN5CC(=C(F)F)C6)nc4c3F)c12
pIC50: > 7.30

Structure string: [2H]C([2H])(Oc1nc(N2CCOC[C@H]3[C@H](F)[C@H]32)c2c(OC(C)C)nc(-c3cc(N)cc4ccc(F)c(C#C)c34)c(F)c2n1)[C@@]12CCCN1C[C@H](F)C2
pIC50: > 7.30

Structure string: [2H]C([2H])(F)Oc1c(F)ccc2cccc(-c3ncc4c(N5CCOC[C@H]6[C@H](F)[C@H]65)nc(OC[C@]56CC(=C)CN5CCC65CC5)nc4c3F)c12
pIC50: > 7.30

Structure string: [2H]C([2H])(Oc1nc(N2CCOC[C@H]3[C@H](F)[C@H]32)c2cnc(-c3cc(N)cc4ccc(F)c(C#C)c34)c(F)c2n1)[C@@]12CCCN1[C@H](C)[C@H](F)C2
pIC50: > 7.30

###

Overview of reported pIC50 across a group of compounds:
Test system: KRAS G12V dependent lung adenocarcinoma cell line, NCI-H441
Experiment notes: Cellular pERK (Thr202/Tyr204) FRET/HTRF assay
Assay type: cell-based
Run conditions: Homo sapiens, NCI-H441, cellular pERK (Thr202/Tyr204) HTRF, NCI-H441 cells
pIC50: −log10 of the molar value.
Recorded endpoint: pIC50

Compound: [2H]C([2H])(Oc1nc(N2CCOC[C@H]3[C@H](F)[C@H]32)c2cnc(-c3cc(N)cc4ccc(F)c(C#C)c34)c(F)c2n1)[C@@]12CCCN1C[C@]1(C[C@@H]1F)C2 (single isomer, unassigned)
Val: > 7.30

Compound: [2H]C([2H])([2H])Oc1c(F)c(F)cc2cncc(-c3ncc4c(N5CCOC[C@H]6[C@H](F)[C@H]65)nc(OC([2H])([2H])[C@@]56CCCN5C[C@H](F)C6)nc4c3F)c12
Val: 6.30 to 7.30

Compound: [2H]C([2H])(Oc1nc(N2CCOC[C@H]3[C@H](F)[C@H]32)c2cnc(-c3cc(NC(C)=O)cc4ccc(F)c(C#C)c34)c(F)c2n1)[C@@]12CCCN1C[C@H](F)C2
Val: 6.30 to 7.30

Compound: [2H]C([2H])(Oc1nc(N2CCOC[C@H]3[C@H](F)[C@H]32)c2cc(C(F)(F)F)c(-c3ccc(F)c4sc(N)c(C#N)c34)c(F)c2n1)[C@@]12CCCN1C[C@H](F)C2 (atropisomer, axis not shown; (aS))
Val: > 7.30

Compound: [2H]C([2H])(Oc1nc(N2CCC(=O)C[C@@H]3[C@@H](F)[C@@H]32)c2cnc(-c3cc(N)cc4cc(F)c(F)c(C#C)c34)c(F)c2n1)[C@@]12CCCN1C[C@H](F)C2
Val: > 7.30

Compound: [2H]C([2H])(Oc1nc(N2CCOC[C@H]3[C@H](F)[C@H]32)c2cnc(-c3cc(N)cc4ccc(F)c(C#C)c34)c(F)c2n1)[C@@]12CCCN1C[C@]1(C[C@H]1F)C2 (single isomer, unassigned)
Val: > 7.30

Compound: [2H]C([2H])(Oc1nc(N2CCOC[C@H]3[C@H](F)[C@H]32)c2cnc(-c3cc(O)cc(Cl)c3C(F)(F)F)c(F)c2n1)[C@@]12CCCN1C[C@H](F)C2
Val: > 7.30

Compound: [2H]C([2H])(Oc1nc(N2CCOC[C@@H]3C(F)[C@@H]32)c2cc(F)c(-c3cc(N)cc(C)c3C(F)(F)F)c(F)c2n1)[C@@]12CCCN1C[C@H](F)C2 (stereo in doubt)
Val: 5.00 to 6.30

Compound: [2H]C([2H])(Oc1nc(N2CCOC[C@H]3[C@H](Cl)[C@H]32)c2cnc(-c3cccc4ccc(Cl)c(C#C)c34)c(F)c2n1)[C@@]12CCCN1C[C@H](F)C2
Val: > 7.30

###

System: KRAS G12V dependent lung adenocarcinoma cell line, NCI-H441
Experiment notes: Cellular pERK (Thr202/Tyr204) FRET/HTRF assay
Format: cell-based
Run conditions: Homo sapiens, NCI-H441, cellular pERK (Thr202/Tyr204) HTRF, NCI-H441 cells
pIC50: −log10 of the molar value.
Overview of reported pIC50 across a group of compounds:
Recorded endpoint: pIC50

Compound: [2H]C([2H])(Oc1nc(N2CCOC[C@H]3[C@@H](Cl)[C@H]32)c2cnc(-c3cc(N)cc4ccc(F)c(C#C)c34)c(F)c2n1)[C@@]12CCCN1C[C@H](F)C2 [Example 247]
Target entity: KRAS G12V dependent lung adenocarcinoma cell line, NCI-H441
Val: 6.30 to 7.30
//
Compound: [2H]C([2H])(Oc1nc(N2CCOC[C@H]3[C@H](F)[C@H]32)c2cnc(-c3cc(N)cc4ccc(Cl)c(C#C)c34)c(F)c2n1)[C@@]12CCCN1[C@H](C)[C@H](F)C2 [Example 337]
Target entity: KRAS G12V dependent lung adenocarcinoma cell line, NCI-H441
Val: > 7.30
//
Compound: [2H]C([2H])(Oc1nc(N2CCCC[C@H]3[C@@H](Cl)[C@H]32)c2cnc(-c3cc(N)cc4ccc(F)c(C#C)c34)c(F)c2n1)[C@@]12CCCN1C[C@H](F)C2 [Example 344]
Target entity: KRAS G12V dependent lung adenocarcinoma cell line, NCI-H441
Val: 5.00 to 6.30
//
Compound: [2H]C([2H])(Oc1nc(N2CCCC[C@H]3[C@H](F)[C@H]32)c2cnc(-c3cncc4ccc(F)c(OC)c34)c(F)c2n1)[C@@]12CCCN1C[C@H](F)C2 [Example 98]
Target entity: KRAS G12V dependent lung adenocarcinoma cell line, NCI-H441
Val: > 7.30
//
Compound: [2H]C([2H])(Oc1nc(N2CCOC[C@H]3[C@H](F)[C@H]32)c2cc(C(F)(F)F)c(-c3cccc4ccccc34)c(F)c2n1)[C@@]12CCCN1C[C@H](F)C2 [Example 415]
Target entity: KRAS G12V dependent lung adenocarcinoma cell line, NCI-H441
Val: 5.00 to 6.30
//
Compound: [2H]C([2H])(Oc1nc(N2CCOC[C@@H]3[C@@H](F)[C@@H]32)c2cc(Cl)c(-c3nc(N)cc(C)c3C(F)(F)F)c(F)c2n1)[C@@]12CCCN1C[C@H](F)C2 [Example 160]
Target entity: KRAS G12V dependent lung adenocarcinoma cell line, NCI-H441
Val: 6.30 to 7.30
//
Compound: C#Cc1c(F)c(F)cc2cccc(-c3ncc4c(N5CCOC[C@H]6[C@H](F)[C@H]65)nc(OC[C@]56CCCN5CC(=C(F)F)C6)nc4c3F)c12 [Example 107]
Target entity: KRAS G12V dependent lung adenocarcinoma cell line, NCI-H441
Val: 6.30 to 7.30
//
Compound: Nc1cc(Cl)c(C(F)(F)F)c(-c2ncc3c(N4CCCC[C@H]5[C@H](F)[C@H]54)nc(OC[C@@]45CCCN4C/C(=C\F)C5)nc3c2F)c1 [Example 373]
Target entity: KRAS G12V dependent lung adenocarcinoma cell line, NCI-H441
Val: > 7.30
//
Compound: C#Cc1c(F)ccc2cc(N)cc(-c3ncc4c(N5CCOC[C@H]6[C@H](F)[C@H]65)nc(OC[C@]56C[C@]7(CN5CCC65CC5)CC7(F)F)nc4c3F)c12 (single isomer, unassigned) [Example 219]
Target entity: KRAS G12V dependent lung adenocarcinoma cell line, NCI-H441
Val: > 7.30
//
Compound: [2H]C([2H])(F)Oc1c(F)ccc2cc(N)cc(-c3ncc4c(N5CCOC[C@H]6[C@H](F)[C@H]65)nc(OC[C@]56CC7(CC7)CN5CCC65CC5)nc4c3F)c12 [Example 228]
Target entity: KRAS G12V dependent lung adenocarcinoma cell line, NCI-H441
Val: > 7.30
//
Compound: [2H]C1([2H])CC[C@@]2(C([2H])([2H])Oc3nc(N4CCOC[C@H]5[C@H](F)[C@H]54)c4cnc(-c5cc(N)cc6ccc(F)c(C#C)c56)c(F)c4n3)C[C@@]3(C[C@@H]3F)CN12 (single isomer, unassigned) [Example 275]
Target entity: KRAS G12V dependent lung adenocarcinoma cell line, NCI-H441
Val: > 7.30
//
Compound: [2H]C1([2H])CC[C@@]2(C([2H])([2H])Oc3nc(N4CCOC[C@H]5[C@H](F)[C@H]54)c4cnc(-c5cc(N)cc6ccc(F)c(C#C)c56)c(F)c4n3)C[C@@]([2H])(F)CN12 [Example 193]
Target entity: KRAS G12V dependent lung adenocarcinoma cell line, NCI-H441
Val: > 7.30
//
Compound: [2H]C([2H])(Oc1nc(N2CCC=C[C@H]3[C@H](F)[C@H]32)c2cnc(-c3cc(N)cc4ccc(F)c(C#C)c34)c(F)c2n1)[C@@]12CCCN1C[C@H](F)C2 [Example 150]
Target entity: KRAS G12V dependent lung adenocarcinoma cell line, NCI-H441
Val: > 7.30
//
Compound: Cc1c(F)c(N)cc(-c2ncc3c(N4CCCC[C@H]5[C@H](F)[C@H]54)nc(OC[C@]45C/C(=C/F)CN4CCC54CC4)nc3c2F)c1C(F)(F)F [Example 381]
Target entity: KRAS G12V dependent lung adenocarcinoma cell line, NCI-H441
Val: 6.30 to 7.30
//
Compound: [2H]C([2H])(Oc1nc(N2CCOC[C@H]3[C@H](Cl)[C@H]32)c2cnc(-c3cccc4ccc(F)c(C#C)c34)c(F)c2n1)[C@@]12CCCN1C[C@H](F)C2 [Example 290]
Target entity: KRAS G12V dependent lung adenocarcinoma cell line, NCI-H441
Val: > 7.30
//
Compound: C#Cc1c(F)ccc2cc(N)cc(-c3ncc4c(N5CCOC[C@H]6[C@H](F)[C@H]65)nc(OC[C@]56C[C@]7(C[C@H]7F)CN5CCC65CC5)nc4c3F)c12 (single isomer, unassigned) [Example 231]
Target entity: KRAS G12V dependent lung adenocarcinoma cell line, NCI-H441
Val: > 7.30
//
Compound: C#Cc1c(F)ccc2cc(N)cc(-c3ncc4c(N5CCOC[C@H]6[C@H](F)[C@H]65)nc(OC[C@@]56CCCN5CC(=C(F)F)C6)nc4c3F)c12 [Example 134]
Target entity: KRAS G12V dependent lung adenocarcinoma cell line, NCI-H441
Val: > 7.30
//
Compound: C#Cc1c(F)ccc2cc(N)cc(-c3ncc4c(N5CCOC[C@H]6[C@H](F)[C@H]65)nc(OC[C@@]56CCCN5C(C)(C)[C@H](F)C6)nc4c3F)c12 [Example 262]
Target entity: KRAS G12V dependent lung adenocarcinoma cell line, NCI-H441
Val: > 7.30
//
Compound: [2H]C([2H])(Oc1nc(N2CCOC[C@H]3[C@H](F)[C@H]32)c2cnc(-c3cc(N)cc4cccc(C#C)c34)c(F)c2n1)[C@@]12CCCN1C[C@H](F)C2 [Example 268]
Target entity: KRAS G12V dependent lung adenocarcinoma cell line, NCI-H441
Val: > 7.30
